# EXPERIMENTAL_SYSTEM: T1, human CD8 alpha (CD8A) on primary human CD8+ T cells (human, UniProt P01732 22-235)
# T1 construct: whole, on cells; also called hCD8A
# T1 sequence (P01732 22-235): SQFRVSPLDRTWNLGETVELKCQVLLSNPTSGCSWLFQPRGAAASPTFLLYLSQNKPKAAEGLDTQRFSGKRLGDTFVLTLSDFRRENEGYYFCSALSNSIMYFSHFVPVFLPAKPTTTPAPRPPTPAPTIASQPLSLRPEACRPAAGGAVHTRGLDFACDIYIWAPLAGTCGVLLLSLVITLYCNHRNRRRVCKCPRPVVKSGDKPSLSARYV
# PROTOCOL_NOTES: flow cytometry, human CD8+ T cells
ASSAY_METRIC: Human T-cell Binding 2 uM (MFI)

Consider the worked cases shown below.
[[record]]
binder = "P283FR9P1366_B7 (designed binder, FN3 domain) LPAPKNLVVSRVTEDSARLSWTAPDAAFDSFWITYPEWPVNGEAIVLTVPGSERSYDLTGLKPGTEYWVVIWGVKGGVESPPLSAIFTT"
test_result = 11400

[[record]]
binder = "P283DR9P1364_C10 (designed binder, FN3 domain) LPAPKNLVVSRVTEDSARLSWTAPDAAFDSFQIAYPEWPKDGEAIVLTVPGSERSYDLTGLKPGTEYAVFIWGVKGGVYSNPLSAIFTT"
test_result = 4940

[[record]]
binder = "P283HR7P1368_H8 (designed binder, FN3 domain) LPAPKNLVVSRVTEDSARLSWTAPDAAFDSFGITYLDPRNGEAISLNVPGSERSYDLTGLKPGTEYWVVIIGVKGGINSYPLGASFTT"
test_result = 22800


(P) P283GR7P1367_E5 (designed binder, FN3 domain) LPAPKNLVVSRVTEDSARLSWTAPDAAFDSFEIWYHEYHPRGEAIVLTVPGSERSYDLTGLKPGTEYDVVISGVKGGHWSYPLSAIFTT
(Q) P283GR7P1367_F5 (designed binder, FN3 domain) LPAPKNLVVSRVTEDSARLSWTAPDAAFDSFDIAYPEWPTDGEAIVLTVPGSERSYDLTGLKPGTEYFVIIYGVKGGALSRPLSAIFTT
# input Sort P and Q by Human T-cell Binding 2 uM (MFI) descending and give the first. Give the label under which the chosen entry appears.
# output P

(I) P283FR9P1366_G5 (designed binder, FN3 domain) LPAPKNLVVSRVTEDSARLSWTAPDAAFDSFQIAYPEYPALGEAIVLTVPGSERSYDLTGLKPGTEYFVIIIGVKGGDESFPLSAIFTT
(II) P283FR9P1366_G1 (designed binder, FN3 domain) LPAPKNLVVSRVTEDSARLSWTAPDAAFDSFYISYPELPVEGEAIVLTVPGSERSYDLTGLKPGTEYWVIIWGVKGGATSEPLSAIFTT
(III) P283FR9P1366_F9 (designed binder, FN3 domain) LPAPKNLVVSRVTEDSARLSWTAPDAAFDSFHIFYPELPIAGEAIVLTVPGSERSYDLTGLKPGTEYWVNISGVKGGYESWPLSAIFTT
(IV) P283BR9P1363_F2 (designed binder, FN3 domain) LPAPKNLVVSRVTEDSARLSWYRPDNRAGAFDSFLIQYQESEKVGEAIVLTVPGSERSYDLTGLKPGTEYTVSIYGVDVKYDIDSRPISSNPLSAIFTT
# input Order each entry by recorded Human T-cell Binding 2 uM (MFI), climbing from the minimum. Output the labels ranked as instructed.
# output II, I, IV, III
(II: 3600 MFI, I: 8450 MFI, IV: 14500 MFI, III: 33600 MFI)

(1) P283BR9P1363_F6 (designed binder, FN3 domain) LPAPKNLVVSRVTEDSARLSWPEEAVTATSFDSFLIQYQESEKVGEAIVLTVPGSERSYDLTGLKPGTEYTVSIYGVDVKWEGNRPVASNPLSAIFTT
(2) P283DR9P1364_F6 (designed binder, FN3 domain) LPAPKNLVVSRVTEDSARLSWTAPDAAFDSFTIAYPEREQDKWGEAIVLTVPGSERSYDLTGLKPGTEYWVIIQGVKGGRPSTPLSAILTT
# input When the recorded Human T-cell Binding 2 uM (MFI) values are compared, which is smaller: that of 1 or that of 2 ? Give the label under which the chosen entry appears.
# output 1
(1: 10600 MFI, 2: 17200 MFI)

Every entry's value here was drawn from patent US20210032312A1.
